pIC50: −log10 of the molar value.
// read-out pIC50, gathered for IRAK4 (Homo sapiens (Human)) from published studies

Before answering, review these 3 worked examples.
Form field, pIC50 with IRAK4 (Homo sapiens (Human)), item CC1(C)OC(=O)c2ccc(Nc3ncc(-c4nnc(C5(C(F)(F)F)CC5)o4)c(N[C@H](CO)c4ccccc4)n3)cc21 : 6.00 to 6.60

Form field, pIC50 with IRAK4 (Homo sapiens (Human)), item CO[C@H]1C[C@@H]1n1cccc(NC(=O)c2cn3cc(C45COC(C)(C4)C5)nc3nc2OC(C)C)c1=O (single isomer, unassigned) : 8.20

Form field, pIC50 with IRAK4 (Homo sapiens (Human)), item CC(C)Nc1cc(Nc2ccc3ncsc3c2)ncc1-c1nnc(C(=O)N2CCC(N)CC2)o1 : 7.64

---
Form field, pIC50 with IRAK4 (Homo sapiens (Human)), item CN1CCCC1CCNC(=O)c1cnc(Nc2ccc3ncsc3c2)cc1NC1CCCC1 (stereo not drawn) : 8.42

###

// read-out IC50, gathered for IRAK4 (Homo sapiens (Human), UniProt Q9NWZ3) from published studies
Observed property: IC50 (nM)

Before answering, review these 3 worked examples.
Recorded IC50 (compound OC[C@H]1C[C@@H](Nc2cc(Nc3ccc(F)cc3)ncc2-c2nc3ccccc3s2)[C@H](O)[C@@H]1O ): 1140

Recorded IC50 (compound c1nc(N[C@H]2CC[C@H](N3CCOCC3)CC2)c2cc(-c3cnc4c(c3)NCC4)ccc2n1 ): 48

Recorded IC50 (compound COc1cc(Nc2ncc(-c3ccc4ccccc4n3)c(N[C@@H]3C[C@H](CO)[C@@H](O)[C@H]3O)n2)ccn1 ): 8

P = CC(C)(O)c1cc2nn([C@H]3C[C@H](C(C)(C)O)C3)cc2cc1NC(=O)c1cccc(C#N)n1
Q = CC(C)Nc1cc(Nc2ccc3ncsc3c2)ncc1C(=O)NC12CCC(O)(CC1)C2
R = Cn1ccnc1-c1ccc2ncnc(N[C@H]3CC[C@H](N4CCOCC4)CC3)c2c1
(Q) Put the compounds in ascending order of IC50. To answer, write out the labels according to the requested order.
(A) Q, P, R
(Q: 10.3 nM, P: 48 nM, R: 562 nM)

###

pIC50: −log10 of the molar value.
// read-out pIC50, gathered for IRAK4 (Homo sapiens (Human)) from published studies
Observed property: pIC50

Before answering, review these 5 worked examples.
Form field, pIC50 with IRAK4 (Homo sapiens (Human)), item CC(C)Nc1c(C(=O)NCCC(C)(C)O)cnc2ccc(-c3ccc(F)nc3F)cc12 : 7.29

Form field, pIC50 with IRAK4 (Homo sapiens (Human)), item COc1cc(-c2nc(C(=O)Nc3cn4cc(C(C)(C)O)nc4cc3-c3ccccc3)co2)ccn1 : 10.00

Form field, pIC50 with IRAK4 (Homo sapiens (Human)), item CC(C)Nc1cc(-n2ncc3cc(C#N)cnc32)ncc1-n1cc(CN2CCOCC2)nn1 : 7.66

Form field, pIC50 with IRAK4 (Homo sapiens (Human)), item CC(C)(F)Cn1cc(Nc2cc(-c3cnc4cc(C#N)cnn34)ncc2C(=O)NC[C@@H](F)C(C)(C)F)cn1 : 8.70

Form field, pIC50 with IRAK4 (Homo sapiens (Human)), item COc1ncnc2ccc(Nc3cc(NC4CCOCC4)c(C(=O)NC[C@@H](F)C(C)(C)O)cn3)cc12 : 8.41

a = CC(C)Nc1cc(-c2ccc3cc(C#N)cnn23)ncc1C(=O)NC[C@@H](F)C(C)(C)O
b = CC(C)Nc1cc(-c2ccc3cc(C#N)cnn23)ncc1-n1cc(C2CCOCC2)nn1
(Q) Response body: label of entry with the larger pIC50; valid values a , b . Output the label that corresponds to your choice.
(A) b
(b: 8.70, a: 8.40)

a = CC(C)(O)CCC1CC(c2cnc(-n3ncc4cc(C#N)cnc43)cc2NCC(F)F)=NO1 (stereo not shown)
b = CC(Nc1cc(-c2cnn3cc(C#N)cnc23)ncc1C(=O)NC[C@@H](F)C(C)(C)O)c1cccnc1 (stereo partly shown)
c = CC(C)Nc1cc(-n2ncc3cc(C#N)cnc32)ncc1-n1cc(CCC#N)nn1
d = Cc1nnc([C@H]2CC[C@H](Nc3cc(-c4ccc5cc(C#N)cnn45)ncc3C(=O)NC[C@@H](F)C(C)(C)O)CC2)s1
e = CNC(=O)c1cnc2cc(-c3ccccc3)nn2c1N[C@H](CO)Cc1ccccc1
(Q) Put the molecules in ascending order of pIC50. To answer, write out the labels according to the requested order.
(A) e, b, c, a, d

1 = Cn1cc(-c2ccc3ncnc(N[C@H]4CC[C@H](N(C)C)CC4)c3c2)cn1
2 = CC(C)Nc1cc(-n2ncc3cc(C#N)cnc32)ncc1C1=NOC(CCC(C)(C)O)C1 (stereo not shown)
(Q) Of the pair 1 and 2 , name the member with the lesser recorded pIC50. Output the label that corresponds to your choice.
(A) 1
